Target: human PAD4 (hPAD4) (Homo sapiens)
Assay: RFMS human PAD4 functional assay (rapid-fire mass spectrum)
Conditions: 5 nM hPAD4 enzyme, 250 μM BAEE, 50 μM Calcium; 30 min preincubation, 90 min reaction at 37° C.
What IC50 was measured for each of the following?
Unit nM implied. Number only.

Task: Param readout= IC50; system= human PAD4 (hPAD4) (Homo sapiens); entry= COC(=O)N[C@H]1C[C@H](n2c(-c3cc4cccnc4n3CC3CC3)nc3cc(C(=O)N4CC5CCC4[C@@H]5N)cc(OC)c32)C1 (stereo partly drawn) ; returns value.
Output: 582

Task: Query the reported IC50 for human PAD4 (hPAD4) (Homo sapiens); item: COc1cc(C(=O)N2C[C@H]3CC[C@@H]2[C@@H]3N)cc2nc(-c3cc4cccnc4n3CC3CC3)n(CC3CN(c4cnccn4)C3)c12
Output: 210

Task: Reported IC50 for human PAD4 (hPAD4) (Homo sapiens), given CCS(=O)(=O)N1CC(n2c(-c3cc4cccnc4n3CC3CC3)nc3cc(C(=O)N4CC5CCC4[C@@H]5N)cc(OC)c32)C1 (stereo partly drawn) ?
Output: 57

Task: Form: Entry = COc1cc(C(=O)N2C[C@H]3CC[C@@H]2[C@@H]3N)cc2nc(-c3cc4cccnc4n3CC3CC3)n(C3CN(C(=O)c4ccnc(F)c4)C3)c12 | System = human PAD4 (hPAD4) (Homo sapiens) | IC50 = ____
Output: 2720

Task: Recorded IC50 for COc1cc(C(=O)N2CC3CCC2[C@@H]3N)cc2nc(-c3cc4cccnc4n3CC3CC3)n(CC3CCN(c4ncccn4)C3)c12 (stereo in doubt) [Example 231] with human PAD4 (hPAD4) (Homo sapiens), please?
Output: 203

Task: Param readout= IC50; system= human PAD4 (hPAD4) (Homo sapiens); entry= COc1cc(C(=O)N2C[C@H]3CC[C@@H]2[C@@H]3N)cc2nc(-c3cc4ccccc4n3CC3CC3)n(CC3CN(C(=O)c4cccc(F)c4)C3)c12 ; returns value.
Output: 33

Task: Param readout = IC50; param system = human PAD4 (hPAD4) (Homo sapiens); param query = COc1cc(C(=O)N2CC3CCC2[C@@H]3N)cc2nc(-c3cc4cccnc4n3CC3CC3)n(CC3CCN(c4ncccn4)CC3)c12 (stereo partly drawn) ; response: value
Output: 72

Task: Quick check: IC50 on human PAD4 (hPAD4) (Homo sapiens), item COc1cc(C(=O)N2C[C@H](N)C[C@@H](F)C2)cc2nc(-c3cc4ccccc4n3CC3CC3)n(Cc3cccs3)c12 ?
Output: 37

Task: Hello, I am looking for reported IC50 with human PAD4 (hPAD4) (Homo sapiens) for COc1cc(C(=O)N2C[C@H]3CC[C@@H]2[C@@H]3N)cc2nc(-c3cc4ccccc4n3CC3CC3)n(Cc3cnn(C)c3)c12 . Could you help?
Output: 41

Task: Any idea what IC50 came out for COc1cc(C(=O)N2C[C@H]3CC[C@@H]2[C@@H]3N)cc2nc(-c3cc4cccnc4n3CC3CC3)n(CC3CN(c4ncccn4)C3)c12 on human PAD4 (hPAD4) (Homo sapiens)?
Output: 84

Task: API: value(readout= IC50, system= human PAD4 (hPAD4) (Homo sapiens), query= COc1cc(C(=O)N2C[C@H]3CC[C@@H]2[C@@H]3N)cc2nc(-c3cc4cccnc4n3CC3CC3)n(CC3CN(c4cncc(C#N)c4)C3)c12 )
Output: 94

Task: IC50 of COc1cc(C(=O)N2C[C@H]3CC[C@@H]2[C@@H]3N)cc2nc(-c3cc4cccnc4n3CC3CC3)n(C3CN(c4ccnc(C5CC5)n4)C3)c12 on human PAD4 (hPAD4) (Homo sapiens)?
Output: 87

Task: // fetch human PAD4 (hPAD4) (Homo sapiens) IC50 for COc1cc(C(=O)N2CC3CCC2[C@@H]3N)cc2nc(-c3cc4ccccc4n3CC3CC3)n(CC3CCS(=O)(=O)C3)c12 (mixture of isomers) [Example 258]
Output: 43

Task: Provide the documented IC50 with human PAD4 (hPAD4) (Homo sapiens) as the system for COc1cc(C(=O)N2CC3CCC2[C@@H]3N)cc2nc(-c3cc4ccc(C(C)O)cc4n3CC3CC3)n(CC3CN(C(=O)c4ccccc4)C3)c12 (stereo partly drawn)
Output: 86

Task: Enter reported IC50 observed with human PAD4 (hPAD4) (Homo sapiens) for COc1cc(C(=O)N2CC3(CCCNC3)C2)cc2nc(-c3cc4ccccc4n3CC3CC3)n(Cc3cnn(C)c3)c12
Output: 1280

Task: Requested read-out IC50, target or system human PAD4 (hPAD4) (Homo sapiens), entry COc1cc(C(=O)N2C[C@H]3CC[C@@H]2[C@@H]3N)cc2nc(-c3cc4ccccc4n3CC3CC3)n(CC3CN(C(=O)c4ccc(O)cc4F)C3)c12
Output: 19

Task: # returns recorded IC50 (system: human PAD4 (hPAD4) (Homo sapiens)) for COc1cc(C(=O)N2C[C@H]3CC[C@@H]2[C@@H]3N)cc2nc(-c3cc4cccnc4n3CC3CC3)n(CC3CN(C(=O)c4ccccc4)C3)c12
Output: 21

Task: For human PAD4 (hPAD4) (Homo sapiens), provide IC50 of COc1cc(C(=O)N2CC3CCC2[C@@H]3N)cc2nc(-c3cc4ccccc4n3CC3CC3)n(C[C@H]3CCN(c4cncc(C#N)c4)C3)c12 (stereo partly drawn) please.
Output: 26

Task: human PAD4 (hPAD4) (Homo sapiens) / IC50 / COc1cc(C(=O)N2C[C@H]3CC[C@@H]2[C@@H]3N)cc2nc(-c3cc4ccccc4n3C)n(CC3CN(c4cncnc4C#N)C3)c12 : value?
Output: 112

Task: GET /values?readout=IC50&system=human PAD4 (hPAD4) (Homo sapiens)&item= COc1cc(C(=O)N2CC3CCC2[C@@H]3N)cc2nc(-c3cc4ccccc4n3CC3CC3)n(Cc3cnn(-c4ccccn4)c3)c12 (stereo partly drawn)
Output: 14

Task: Param readout = IC50; param system = human PAD4 (hPAD4) (Homo sapiens); param query = COc1cc(C(=O)N2C[C@H]3CC[C@@H]2[C@@H]3N)cc2nc(-c3cc4ccccc4n3CC3CC3)n(Cc3csc(C)n3)c12 ; response: value
Output: 127

Task: Recall the recorded IC50 for COc1cc(C(=O)N2C[C@H](N)C[C@@H](F)C2)cc2nc(-c3cc4ccccc4n3CC3CC3)n(Cc3ccncc3)c12 with human PAD4 (hPAD4) (Homo sapiens) and state it.
Output: 1230

Task: Notebook entry, human PAD4 (hPAD4) (Homo sapiens) assay: IC50 of COc1cc(C(=O)N2CC3CCC2[C@@H]3N)cc2nc(-c3cc4ccccc4n3CC3CC3)n(CC3CC3c3ccccc3)c12 (stereo partly drawn) = ?
Output: 212

Task: Under human PAD4 (hPAD4) (Homo sapiens): IC50 value of COc1cc(C(=O)N2C[C@H]3CC[C@@H]2[C@@H]3N)cc2nc(-c3cc4ccccc4n3CC3CC3)n(CC3CN(c4cncc(C#N)n4)C3)c12 ?
Output: 28

----------
Please respond with reported IC50 for every item in the list.
Molecular target: human PAD4 (hPAD4) (Homo sapiens, UniProt Q9UM07)
Sequence (Q9UM07 whole entry): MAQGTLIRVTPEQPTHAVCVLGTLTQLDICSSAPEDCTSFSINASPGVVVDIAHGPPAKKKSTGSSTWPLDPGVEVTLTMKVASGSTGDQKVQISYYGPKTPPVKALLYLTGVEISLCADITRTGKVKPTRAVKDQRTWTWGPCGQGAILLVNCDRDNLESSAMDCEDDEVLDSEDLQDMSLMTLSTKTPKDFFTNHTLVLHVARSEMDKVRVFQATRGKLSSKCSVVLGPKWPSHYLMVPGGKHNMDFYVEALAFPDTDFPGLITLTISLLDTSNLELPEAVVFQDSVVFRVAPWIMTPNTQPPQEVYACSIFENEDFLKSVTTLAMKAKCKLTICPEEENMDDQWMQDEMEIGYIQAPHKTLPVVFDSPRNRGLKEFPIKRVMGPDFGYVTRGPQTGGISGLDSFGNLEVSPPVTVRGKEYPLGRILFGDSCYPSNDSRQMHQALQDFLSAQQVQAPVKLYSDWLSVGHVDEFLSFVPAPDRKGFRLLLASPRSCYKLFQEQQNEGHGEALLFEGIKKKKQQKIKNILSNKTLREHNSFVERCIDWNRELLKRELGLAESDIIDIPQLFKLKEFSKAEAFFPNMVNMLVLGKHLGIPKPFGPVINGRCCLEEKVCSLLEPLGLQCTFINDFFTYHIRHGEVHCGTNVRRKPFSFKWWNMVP
Assay: RFMS human PAD4 functional assay (rapid-fire mass spectrum)
Details: 5 nM hPAD4 enzyme, 250 μM BAEE, 50 μM Calcium; 30 min preincubation, 90 min reaction at 37° C.
Write the answer as a number in nM, unit excluded.

Task: Notebook entry, human PAD4 (hPAD4) (Homo sapiens, UniProt Q9UM07) assay: IC50 of COc1cc(C(=O)N2CC3CCC2[C@@H]3N)cc2nc(-c3cc4ccccc4n3CC3CC3)n(CC3CN(C(=O)C4CCC(F)(F)C4)C3)c12 (stereo partly shown) [Example 139] = ?
Output: 12

Task: Could you share what IC50 was measured for COc1cc(C(=O)N2CC3CCC2[C@@H]3N)cc2nc(-c3cccn3C)n(CC3CN(c4ccnc(C#N)n4)C3)c12 (stereo partly shown) [Example 318] , tested on human PAD4 (hPAD4) (Homo sapiens, UniProt Q9UM07)?
Output: 1300

Task: Provide value of IC50 for this record tested with human PAD4 (hPAD4) (Homo sapiens, UniProt Q9UM07): COc1cc(C(=O)N2CC3CCC2[C@@H]3N)cc2nc(-c3cc4ccccc4n3CC3CC3)n(Cc3cnn(-c4cc(F)cnc4O)c3)c12 (stereo partly shown) [Example 376]
Output: 37

Task: Give IC50 (human PAD4 (hPAD4) (Homo sapiens, UniProt Q9UM07)) of the following compound: COc1cc(C(=O)N2C[C@H]3CC[C@@H]2[C@@H]3N)cc2nc(-c3cc4ccccc4n3CC3CC3)n(Cc3cccs3)c12 [Example 256]
Output: 41

Task: Form entry - test system: human PAD4 (hPAD4) (Homo sapiens, UniProt Q9UM07); read-out: IC50; compound: COc1cc(C(=O)N2CC3CCC2[C@@H]3N)cc2nc(-c3cc4ccccc4n3CC(F)F)n(Cc3cnn(C)c3)c12 (stereo partly shown) [Example 502]
Output: 146

Task: Please state recorded IC50 (tested on human PAD4 (hPAD4) (Homo sapiens, UniProt Q9UM07)) of COc1cc(C(=O)N2C[C@H](N)C[C@@H](F)C2)cc2nc(-c3cc4cccnc4n3CC3CC3)n(CC3(C)CN(C(=O)c4ccccc4)C3)c12 [Example 469]
Output: 129

Task: Recorded IC50 for COc1cc(C(=O)N2CC3CCC2[C@@H]3N)cc2nc(-c3cc4ccccc4n3CC3CC3)n(Cc3cnnn3C)c12 (stereo partly shown) [Example 514] with human PAD4 (hPAD4) (Homo sapiens, UniProt Q9UM07), please?
Output: 409

Task: Query the reported IC50 for human PAD4 (hPAD4) (Homo sapiens, UniProt Q9UM07); item: COc1cc(C(=O)N2C[C@H]3CC[C@@H]2[C@@H]3N)cc2nc(-c3cc4ccccc4n3CC3CC3)n(CC3CN(C(=O)c4ccc(C#N)cc4)C3)c12 [Example 91]
Output: 9

Task: What measured IC50 is associated with COc1cc(C(=O)N2CC3CCC2[C@@H]3N)cc2nc(-c3cc4cccnc4n3CC3CC3)n(CC3CCN(C(=O)c4ncccn4)CC3)c12 (stereo partly shown) [Example 236] on human PAD4 (hPAD4) (Homo sapiens, UniProt Q9UM07)?
Output: 402

Task: Recorded IC50 for N#Cc1ccc(C(=O)N2CC(Cn3c(-c4cc5cccnc5n4CC4CC4)nc4cc(C(=O)N5CC6CCC5[C@@H]6N)cc(F)c43)C2)cc1 (stereo partly shown) [Example 462] with human PAD4 (hPAD4) (Homo sapiens, UniProt Q9UM07), please?
Output: 70

Task: Recall the recorded IC50 for COc1cc(C(=O)N2CC3CCC2[C@@H]3N)cc2nc(-c3cc4ccccc4n3CC3CC3)n(Cc3cnn(-c4ccnc(N)c4)c3)c12 (stereo partly shown) [Example 361] with human PAD4 (hPAD4) (Homo sapiens, UniProt Q9UM07) and state it.
Output: 25

Task: Field: IC50 (human PAD4 (hPAD4) (Homo sapiens, UniProt Q9UM07)). Entry: COc1cc(C(=O)N2CC3CCC2[C@@H]3N)cc2nc(-c3cc4cccnc4n3CC3CC3)n(C3CN(S(=O)(=O)C4CC4)C3)c12 (stereo partly shown) [Example 328]
Output: 125

Task: Give human PAD4 (hPAD4) (Homo sapiens, UniProt Q9UM07) IC50 for COc1cc(C(=O)N2CC3CCC2[C@@H]3N)cc2nc(-c3cc4cccnc4n3CC3CC3)n(Cc3cnn(-c4ccccc4)c3)c12 (stereo partly shown) [Example 367]
Output: 29
